All figures here come from patent US20180105546A1.

Test system: E. coli ATCC 25922
test_summary: Kirby-Bauer disk test (zone of inhibition)
Type: cell-based
run_parameters: amount 17.5 nmol per disk, HFBA salts except 1* (sulphate)
Exercise: state measured Diameter (zones of inhibition as determined by Kirby-Bauer disk method) for each of the molecules provided.
One number for each entry, in mm.

| molecule | reported_result |
| --- | --- |
| NC[C@@H]1O[C@H](O[C@H]2[C@@H](O)[C@H](O[C@@H]3[C@@H](O)[C@H](N)C[C@H](N)[C@H]3O[C@H]3O[C@H](CO)[C@@H](O)[C@H](O)[C@H]3N)O[C@@H]2CO)[C@H](N)[C@@H](O)[C@@H]1O [2^, paromomycin, reference compound] | 13.2 |
| NCC1OC(OC2C(CO)OC(OC3C(O)C(N)CC(N)C3OC3OC(CN)C(O)C(O)C3N)C2O)C(N)C(O)C1O.O=C(O)C(F)(F)C(F)(F)C(F)(F)F.O=C(O)C(F)(F)C(F)(F)C(F)(F)F.O=C(O)C(F)(F)C(F)(F)C(F)(F)F.O=C(O)C(F)(F)C(F)(F)C(F)(F)F.O=C(O)C(F)(F)C(F)(F)C(F)(F)F.O=C(O)C(F)(F)C(F)(F)C(F)(F)F (stereo not shown) [1^, neomycin B×6 HFBA, reference compound] | 16.1 |
| CC(=O)NCC1O[C@H](OC2C(O)[C@H](OC3C(O)[C@H](N)CC(N)[C@H]3O[C@H]3OC(CN)[C@@H](O)C(O)C3N)O[C@@H]2CO)C(N)C(O)[C@@H]1O (stereo partly shown) [5a, N^6(VI)-acetyl neomycin B] | 13.9 |

Query: # get_value(readout= Diameter (zones of inhibition as determined by Kirby-Bauer disk method), system= E. coli ATCC 25922) for CC(C)C(=O)NCC1O[C@H](OC2C(O)[C@H](OC3C(O)[C@H](N)CC(N)[C@H]3O[C@H]3OC(CN)[C@@H](O)C(O)C3N)O[C@@H]2CO)C(N)C(O)[C@@H]1O (stereo partly shown) [compound 6]
Result: 11.5
